# Tested target: 5-hydroxytryptamine receptor 1A (Rattus norvegicus) (UniProt P19327)
# Sequence (P19327 whole entry): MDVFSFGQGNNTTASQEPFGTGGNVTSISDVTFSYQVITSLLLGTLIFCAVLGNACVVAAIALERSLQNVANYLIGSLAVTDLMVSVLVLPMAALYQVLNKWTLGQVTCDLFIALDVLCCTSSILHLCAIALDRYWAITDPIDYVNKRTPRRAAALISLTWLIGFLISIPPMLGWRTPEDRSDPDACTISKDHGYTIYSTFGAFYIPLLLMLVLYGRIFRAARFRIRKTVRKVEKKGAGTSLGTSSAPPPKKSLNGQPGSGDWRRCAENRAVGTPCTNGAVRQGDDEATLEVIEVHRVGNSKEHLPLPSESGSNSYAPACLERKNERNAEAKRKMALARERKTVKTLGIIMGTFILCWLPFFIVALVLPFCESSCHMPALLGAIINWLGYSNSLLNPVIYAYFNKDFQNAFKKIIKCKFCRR
# Method: Displacement of [3H]8-OH-DPAT from 5HT1A receptor in rat hippocampal membrane at 10^-6 M by radioligand binding assay
# Format: cell membranes
# Experimental context: Hippocampus
Endpoint label: inhibition (%)

{"Substance smiles": "Cc1ccc2c(c1)ncc1c(=O)n(CCN3CCN(c4cccc(C(F)(F)F)c4)CC3)cnc12", "inhibition (%)": 88}
{"Substance smiles": "O=c1c2cnc3ccccc3c2ncn1CCCN1CCN(c2ccccc2)CC1", "inhibition (%)": 95}
{"Substance smiles": "Cc1ccc2c(c1)ncc1c(=O)n(CCCN3CCN(c4ccc(F)cc4)CC3)cnc12", "inhibition (%)": 68}
{"Substance smiles": "O=c1c2cnc3ccccc3c2ncn1CCN1CCN(c2cccc(C(F)(F)F)c2)CC1", "inhibition (%)": 89}
{"Substance smiles": "COc1ccccc1N1CCN(CCCn2cnc3c(cnc4cc(C)ccc43)c2=O)CC1", "inhibition (%)": 92}

###

# Tested target: 5-hydroxytryptamine receptor 2A (Rattus norvegicus) (UniProt P14842)
# Sequence (P14842 whole entry): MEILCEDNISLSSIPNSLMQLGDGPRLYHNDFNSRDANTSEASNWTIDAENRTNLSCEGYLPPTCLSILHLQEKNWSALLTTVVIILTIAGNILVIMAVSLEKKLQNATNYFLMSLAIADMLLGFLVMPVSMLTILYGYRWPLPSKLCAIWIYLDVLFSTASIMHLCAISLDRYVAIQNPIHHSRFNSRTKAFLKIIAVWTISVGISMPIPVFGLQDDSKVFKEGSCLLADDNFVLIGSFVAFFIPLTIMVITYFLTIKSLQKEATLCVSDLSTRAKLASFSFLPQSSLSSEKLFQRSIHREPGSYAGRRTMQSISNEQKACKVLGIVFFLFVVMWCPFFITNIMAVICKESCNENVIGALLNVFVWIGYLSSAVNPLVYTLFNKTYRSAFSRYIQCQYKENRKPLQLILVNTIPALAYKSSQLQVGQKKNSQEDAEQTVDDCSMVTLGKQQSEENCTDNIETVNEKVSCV
# Method: Displacement of [3H]ketanserin from 5HT2A receptor in rat cortex membrane at 10^-6 M by radioligand binding assay
# Assay type: cell membranes
Endpoint label: inhibition (%)

{"Substance smiles": "O=c1c2cnc3ccccc3c2ncn1CCN1CCN(c2cccc(C(F)(F)F)c2)CC1", "Assay value": 36}
{"Substance smiles": "COc1cccc(N2CCN(CCn3cnc4c(cnc5ccccc54)c3=O)CC2)c1", "Assay value": 11}
{"Substance smiles": "COc1ccccc1N1CCN(CCCn2cnc3c(cnc4ccc(C)cc43)c2=O)CC1", "Assay value": 5}

(A) COc1ccccc1N1CCN(CCCCn2cnc3c(cnc4ccc(C)cc43)c2=O)CC1
(B) O=c1c2cnc3ccccc3c2ncn1CCCCN1CCN(c2ccccc2F)CC1
(C) O=c1c2cnc3ccccc3c2ncn1CCCN1CCN(c2ccccc2F)CC1
(D) COc1ccccc1N1CCN(CCCn2cnc3c(cnc4ccccc43)c2=O)CC1
Ranking field: inhibition; order: falling. List the labels in the requested order.
B, A, C, D

(1) O=c1c2cnc3ccccc3c2ncn1CCCCN1CCN(c2cccc(Cl)c2)CC1
(2) Cc1ccc2ncc3c(=O)n(CCCN4CCN(c5cccc(Cl)c5)CC4)cnc3c2c1
(3) Cc1ccc2c(c1)ncc1c(=O)n(CCN3CCN(c4cccc(C(F)(F)F)c4)CC3)cnc12
List from greatest to least inhibition. Answer by writing out the labels in the requested order.
1, 2, 3
(1: 84%, 2: 44%, 3: 8%)

###

# Tested target: 5-hydroxytryptamine receptor 2A (Rattus norvegicus)
# Method: Displacement of [3H]ketanserin from 5HT2A receptor in rat cortex membrane at 10^-6 M by radioligand binding assay
# Type: cell membranes
Endpoint label: inhibition (%)

In the examples that follow, each entry is paired with its recorded inhibition.
{"Substance smiles": "O=c1c2cnc3ccccc3c2ncn1CCCCN1CCN(c2ccc(F)cc2)CC1", "inhibition, %": 82}
{"Substance smiles": "Cc1ccc2c(c1)ncc1c(=O)n(CCCN3CCN(c4ccccc4)CC3)cnc12", "inhibition, %": 44}
{"Substance smiles": "Cc1ccc2ncc3c(=O)n(CCN4CCN(c5cccc(C(F)(F)F)c5)CC4)cnc3c2c1", "inhibition, %": 8}
{"Substance smiles": "O=c1c2cnc3ccccc3c2ncn1CCCN1CCN(c2ccccc2)CC1", "inhibition, %": 66}
{"Substance smiles": "Cc1ccc2ncc3c(=O)n(CCCCN4CCN(c5ccccc5F)CC4)cnc3c2c1", "inhibition, %": 34}

(a) O=c1c2cnc3ccccc3c2ncn1CCN1CCN(c2ccc(-c3ncccn3)cc2)CC1
(b) COc1cccc(N2CCN(CCCCn3cnc4c(cnc5ccccc54)c3=O)CC2)c1
Compare inhibition: is it lower for a or for b ? Choose, then provide that item's label.
a

(a) Cc1ccc2c(c1)ncc1c(=O)n(CCCN3CCN(c4cccc(Cl)c4)CC3)cnc12
(b) O=c1c2cnc3ccccc3c2ncn1CCN1CCN(c2ccccc2F)CC1
(c) O=c1c2cnc3ccccc3c2ncn1CCCCN1CCN(c2cccc(C(F)(F)F)c2)CC1
(d) O=c1c2cnc3ccccc3c2ncn1CCN1CCN(c2ccc(F)cc2)CC1
Order by inhibition, ascending. Write the labels in rank order as requested.
d, b, a, c
(d: 14%, b: 25%, a: 40%, c: 61%)

Sourced from ChEMBL document CHEMBL1811770
